Recorded values, source the supplement of paper PMC9512659.

- Test system: Mycobacterium tuberculosis Erdman (pMV306hsp+LuxG13)
- Experimental details: GRinf, normalised growth-rate inhibition at infinite dose (GR value (unitless, negative = killing)); higher = less potent
- Experimental conditions: growth medium: butyrate 5 mM; time point: terminal time point
Observed property: GRinf
Format: numeric value only, no unit, no commentary.

Sample answers from the record:
• COc1nc2ccc(Br)cc2cc1[C@@H](c1ccccc1)[C@@](O)(CCN(C)C)c1cccc2ccccc12 [bedaquiline] + CC(=O)NC[C@H]1CN(c2ccc(N3CCSCC3)c(F)c2)C(=O)O1 [sutezolid] = 0.0372
• NNC(=O)c1ccncc1 [isoniazid] + CC(=O)NC[C@H]1CN(c2ccc(N3CCSCC3)c(F)c2)C(=O)O1 [sutezolid] = 0.104
• CO[C@H]1/C=C/O[C@@]2(C)Oc3c(C)c(O)c4c(O)c(c(/C=N/N5CCN(C6CCCC6)CC5)c(O)c4c3C2=O)NC(=O)/C(C)=C\C=C\[C@H](C)[C@H](O)[C@@H](C)[C@@H](O)[C@@H](C)[C@H](OC(C)=O)[C@@H]1C [rifapentine] + CC(=O)NC[C@H]1CN(c2ccc(N3CCSCC3)c(F)c2)C(=O)O1 = 0.0324
• CC[C@@H](CO)NCCN[C@@H](CC)CO [ethambutol] + CC(C)=CCC/C(C)=C/CNCCNC1C2CC3CC(C2)CC1C3 [SQ109] = 0.0593
• O=[N+]([O-])c1cn2c(n1)OC[C@@H](OCc1ccc(OC(F)(F)F)cc1)C2 [pretomanid] + CC(=O)NC[C@H]1CN(c2ccc(N3CCSCC3)c(F)c2)C(=O)O1 = -0.0169

Reported GRinf, molecule NC(=O)c1cnccn1 [pyrazinamide] + CC(C)=CCC/C(C)=C/CNCCNC1C2CC3CC(C2)CC1C3 [SQ109] : ____
0.022

----------
- Tested on: Mycobacterium tuberculosis Erdman (pMV306hsp+LuxG13)
- Experimental details: AUC25, normalised area under the dose-response curve up to IC25 (normalised AUC (unitless)); higher = more potent
- Experimental conditions: growth medium: valerate 0.1%; time point: terminal time point
Recorded AUC25 by entry
Format: numeric value only, no unit, no commentary.

* CC[C@@H](CO)NCCN[C@@H](CC)CO [ethambutol] + CC(=O)NC[C@H]1CN(c2ccc(N3CCSCC3)c(F)c2)C(=O)O1 [sutezolid] | 0.0852
* CO[C@H]1/C=C/O[C@@]2(C)Oc3c(C)c(O)c4c(O)c(c(/C=N/N5CCN(C6CCCC6)CC5)c(O)c4c3C2=O)NC(=O)/C(C)=C\C=C\[C@H](C)[C@H](O)[C@@H](C)[C@@H](O)[C@@H](C)[C@H](OC(C)=O)[C@@H]1C [rifapentine] + CC(=O)NC[C@H]1CN(c2ccc(N3CCSCC3)c(F)c2)C(=O)O1 | 0.0657
* NNC(=O)c1ccncc1 [isoniazid] + CC(=O)NC[C@H]1CN(c2ccc(N3CCSCC3)c(F)c2)C(=O)O1 [sutezolid] | 0.0761
* NNC(=O)c1ccncc1 [isoniazid] + CC(C)=CCC/C(C)=C/CNCCNC1C2CC3CC(C2)CC1C3 [SQ109] | 0.0646
* NC(=O)c1cnccn1 [pyrazinamide] + CC(C)=CCC/C(C)=C/CNCCNC1C2CC3CC(C2)CC1C3 [SQ109] | 0.0424

Please examine the following record next.
Reported AUC25, compound NC(=O)c1cnccn1 [pyrazinamide] + CC(=O)NC[C@H]1CN(c2ccc(N3CCSCC3)c(F)c2)C(=O)O1 [sutezolid] : ____
0.0613

----------
- System: Mycobacterium tuberculosis Erdman (pMV306hsp+LuxG13)
- Experimental details: GRinf, normalised growth-rate inhibition at infinite dose (GR value (unitless, negative = killing)); higher = less potent
- Experimental conditions: growth medium: acidic pH 5.7, glycerol; time point: terminal time point
Observed property: GRinf
Format: numeric value only, no unit, no commentary.

Reported GRinf, compound NNC(=O)c1ccncc1 [isoniazid] + CC(=O)NC[C@H]1CN(c2ccc(N3CCSCC3)c(F)c2)C(=O)O1 [sutezolid] : ____
-0.174

----------
Recorded log2 fractional inhibitory concentration by entry
- Test system: Mycobacterium tuberculosis Erdman (pMV306hsp+LuxG13)
- Experimental details: log2 fractional inhibitory concentration at 50% inhibition (log2 FIC); higher = more antagonistic
- Experimental conditions: growth medium: butyrate 5 mM; time point: terminal time point
Format: numeric value only, no unit, no commentary.

Sample answers from the record:
- O=[N+]([O-])c1cn2c(n1)OC[C@@H](OCc1ccc(OC(F)(F)F)cc1)C2 [pretomanid] + CC(=O)NC[C@H]1CN(c2ccc(N3CCSCC3)c(F)c2)C(=O)O1: 0.95
- CC[C@@H](CO)NCCN[C@@H](CC)CO [ethambutol] + CC(=O)NC[C@H]1CN(c2ccc(N3CCSCC3)c(F)c2)C(=O)O1 [sutezolid]: 0.703
- COc1c(N2C[C@@H]3CCCN[C@@H]3C2)c(F)cc2c(=O)c(C(=O)O)cn(C3CC3)c12 [moxifloxacin] + CC(=O)NC[C@H]1CN(c2ccc(N3CCSCC3)c(F)c2)C(=O)O1: 1.99

Please examine the following record next.
Request: log2 fractional inhibitory concentration, test system Mycobacterium tuberculosis Erdman (pMV306hsp+LuxG13), entry CC(C)/N=c1\cc2n(-c3ccc(Cl)cc3)c3ccccc3nc-2cc1Nc1ccc(Cl)cc1 [clofazimine] + CC(=O)NC[C@H]1CN(c2ccc(N3CCSCC3)c(F)c2)C(=O)O1 [sutezolid]
-1.03

----------
Recorded AUC25 by entry
- Tested on: Mycobacterium tuberculosis Erdman (pMV306hsp+LuxG13)
- Experimental details: AUC25, normalised area under the dose-response curve up to IC25 (normalised AUC (unitless)); higher = more potent
- Experimental conditions: growth medium: cholesterol 0.2 mM (cholesterol-high); time point: constant time point
Format: numeric value only, no unit, no commentary.

Sample answers from the record:
• NNC(=O)c1ccncc1 [isoniazid] + CC(=O)NC[C@H]1CN(c2ccc(N3CCSCC3)c(F)c2)C(=O)O1 [sutezolid] = 0.0844
• O=[N+]([O-])c1cn2c(n1)OC[C@@H](OCc1ccc(OC(F)(F)F)cc1)C2 [pretomanid] + CC(=O)NC[C@H]1CN(c2ccc(N3CCSCC3)c(F)c2)C(=O)O1 = 0.0533
• NC(=O)c1cnccn1 [pyrazinamide] + CC(=O)NC[C@H]1CN(c2ccc(N3CCSCC3)c(F)c2)C(=O)O1 [sutezolid] = 0.0979

Reported AUC25, compound CC[C@@H](CO)NCCN[C@@H](CC)CO [ethambutol] + CC(=O)NC[C@H]1CN(c2ccc(N3CCSCC3)c(F)c2)C(=O)O1 [sutezolid] : ____
0.0903

Could you do the same for NNC(=O)c1ccncc1 [isoniazid] + CC(C)=CCC/C(C)=C/CNCCNC1C2CC3CC(C2)CC1C3 [SQ109] , please?
0.0635

Could you do the same for CO[C@H]1/C=C/O[C@@]2(C)Oc3c(C)c(O)c4c(O)c(c(/C=N/N5CCN(C)CC5)c(O)c4c3C2=O)NC(=O)/C(C)=C\C=C\[C@H](C)[C@H](O)[C@@H](C)[C@@H](O)[C@@H](C)[C@H](OC(C)=O)[C@@H]1C [rifampicin] + CC(C)=CCC/C(C)=C/CNCCNC1C2CC3CC(C2)CC1C3 [SQ109] , please?
0.03

----------
- Test system: Mycobacterium tuberculosis Erdman (pMV306hsp+LuxG13)
- Experimental details: AUC25, normalised area under the dose-response curve up to IC25 (normalised AUC (unitless)); higher = more potent
- Experimental conditions: growth medium: cholesterol 0.05 mM; time point: constant time point
Observed property: AUC25
Format: numeric value only, no unit, no commentary.

• COc1c(N2C[C@@H]3CCCN[C@@H]3C2)c(F)cc2c(=O)c(C(=O)O)cn(C3CC3)c12 [moxifloxacin] + CC(=O)NC[C@H]1CN(c2ccc(N3CCSCC3)c(F)c2)C(=O)O1 = 0.0609
• NC(=O)c1cnccn1 [pyrazinamide] + CC(C)=CCC/C(C)=C/CNCCNC1C2CC3CC(C2)CC1C3 [SQ109] = 0.116
• CC(C)/N=c1\cc2n(-c3ccc(Cl)cc3)c3ccccc3nc-2cc1Nc1ccc(Cl)cc1 [clofazimine] + CC(=O)NC[C@H]1CN(c2ccc(N3CCSCC3)c(F)c2)C(=O)O1 [sutezolid] = 0.112
• O=[N+]([O-])c1cn2c(n1)OC[C@@H](OCc1ccc(OC(F)(F)F)cc1)C2 [pretomanid] + CC(=O)NC[C@H]1CN(c2ccc(N3CCSCC3)c(F)c2)C(=O)O1 = 0.0266

Please examine the following record next.
Reported AUC25, compound NNC(=O)c1ccncc1 [isoniazid] + CC(=O)NC[C@H]1CN(c2ccc(N3CCSCC3)c(F)c2)C(=O)O1 [sutezolid] : ____
0.026

----------
- Tested on: Mycobacterium tuberculosis Erdman (pMV306hsp+LuxG13)
- Experimental details: log2 fractional inhibitory concentration at 90% inhibition (log2 FIC); higher = more antagonistic
- Experimental conditions: growth medium: hypoxic dormancy (butyrate + nitrate), then recovery; time point: terminal time point
Observed property: log2 fractional inhibitory concentration

Sample answers from the record:
- COc1nc2ccc(Br)cc2cc1[C@@H](c1ccccc1)[C@@](O)(CCN(C)C)c1cccc2ccccc12 [bedaquiline] + CC(C)=CCC/C(C)=C/CNCCNC1C2CC3CC(C2)CC1C3 [SQ109]: -0.972
- CC[C@@H](CO)NCCN[C@@H](CC)CO [ethambutol] + CC(=O)NC[C@H]1CN(c2ccc(N3CCSCC3)c(F)c2)C(=O)O1 [sutezolid]: 0.341
- CO[C@H]1/C=C/O[C@@]2(C)Oc3c(C)c(O)c4c(O)c(c(/C=N/N5CCN(C)CC5)c(O)c4c3C2=O)NC(=O)/C(C)=C\C=C\[C@H](C)[C@H](O)[C@@H](C)[C@@H](O)[C@@H](C)[C@H](OC(C)=O)[C@@H]1C [rifampicin] + CC(C)=CCC/C(C)=C/CNCCNC1C2CC3CC(C2)CC1C3 [SQ109]: -1.05

Request: log2 fractional inhibitory concentration, test system Mycobacterium tuberculosis Erdman (pMV306hsp+LuxG13), entry O=[N+]([O-])c1cn2c(n1)OC[C@@H](OCc1ccc(OC(F)(F)F)cc1)C2 [pretomanid] + CC(=O)NC[C@H]1CN(c2ccc(N3CCSCC3)c(F)c2)C(=O)O1 [sutezolid]
-0.41

Could you do the same for COc1nc2ccc(Br)cc2cc1[C@@H](c1ccccc1)[C@@](O)(CCN(C)C)c1cccc2ccccc12 [bedaquiline] + CC(=O)NC[C@H]1CN(c2ccc(N3CCSCC3)c(F)c2)C(=O)O1 [sutezolid] , please?
-0.465
